B1: CPEB3 Ribozyme (parent)
chain: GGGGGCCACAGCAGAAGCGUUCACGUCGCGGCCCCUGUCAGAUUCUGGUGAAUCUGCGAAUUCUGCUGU

variants of: B1; experiment: self-cleavage, relative activity (ratio to wild type); higher = more cleavage; co-transcriptional
reportedProperty: self-cleavage

GGGGGCCACAGGAGAAGCGUUCUCGUCGCGGCCCCUGUCAGAUUCUGGUGAAUCUGCGAAUUCUGCUGU    0.55
GGGGGCCCCAGCGGAAGCGUUCACGUCGCGGCCCCUGUCAGAUUCUGGUGAAUCUGCGAAUUCUGCUGU    0.987
GGGGGCCACAGCAGAAGUGUUCACGUCGCGGCCCCUGUCAGAUUCUGGUGAAUCUGCGAAUUCCGCUGU    0.383
GGGGGCCACAGCAGACGCGUUCACGUCGCGGCCCCUGUCAGAUUCUGGUGAAUCUGCGAAUUCAGCUGU    0.0981
GGGGGCCACAGCAGAAGCGUUGACGUCGCGGCCCCUGUCAGAUUCUGGUGAAUCUGCAAAUUCUGCUGU    0.103
GGGGGCCACAGCAGAAGCGUUCACGUCGCGGACCCUGACAGAUUCUGGUGAAUCUGCGAAUUCUGCUGU    0.791
GGGGGCCACAGCAGAAGCGUUCACGUCGCGGCCCCUGUCAGAUUCUGGUCAAUCUGCGAAUUCUGCUAU    0.992
GGGGGCCACAGCAGAAGCGUUCACGUCGCGGCCCCUGUCAGAUUCGGAUGAAUCUGCGAAUUCUGCUGU    1.01
GGGGGCCACAGCAGAAGCGUUCACGUCGCGGCCCCUGUCAGAUGCUGGCGAAUCUGCGAAUUCUGCUGU    0.901
GGGCGCCACAGCAGAAGCGUUCACGUCGCGGCCCCUGUCAGAUUCUGGUGAAUCUUCGAAUUCUGCUGU    0.339

Q: // returns reported self-cleavage for input GGGGGCCACAGCAGAAGCGUUCACGUCGCGGCCCCUGUCAGAAUCUGCUGAAUCUGCGAAUUCUGCUGU
A: 0.912

Q: Next entry: GGGGGCCACAGCAGAAGCGUUCACGUCGCGGCCCCUGUCAGAUUCUGGUGAAUGUGCGAAUGCUGCUGU
A: 0.609

Q: Next entry: GGGGGCCACAGCAGAAGCGUUCACGUCGCGGCCCCUCUCAGAUUCUGGUGAAUCUGCGAAUUCUGCUGA
A: 0.336

Q: Next entry: GGGGGCCACAGCAGAAGCGUUCACGUCGCGGCCCCUUUCAGAUUCUGGUGACUCUGCGAAUUCUGCUGU
A: 0.281

Q: Next entry: GGGCGUCACAGCAGAAGCGUUCACGUCGCGGCCCCUGUCAGAUUCUGGUGAAUCUGCGAAUUCUGCUGU
A: 0.132

Q: Next entry: GAGGGCCACAGCAGAAGCGAUCACGUCGCGGCCCCUGUCAGAUUCUGGUGAAUCUGCGAAUUCUGCUGU
A: 0.0398

Q: Next entry: GGAGGCCACAGCAGAAGCGUUCACGUCGCGGCCCCUCUCAGAUUCUGGUGAAUCUGCGAAUUCUGCUGU
A: 0.126
